Source: patent US20240043507A1

assay-target: SARS-CoV-2 spike receptor binding domain (native RBD) (SARS-CoV-2, UniProt P0DTC2 330-532)
measurement-kind: Kd (nM)
Quick reminder: number only, in nM, skip the unit.

Some solved cases for reference:
binder: antibody 58 (antibody, V domains shown) VH: QVQLVESGGGLVQPGRSLRLSCAASGFTFDDYAMHWVRQPPGKGLEWVSGVSWNSGTIGYADSVKGRFIISRDNAKNSLYLQMNSLKAEDTALYYCAREVGGTFGVLISREGGLDYWGQGTLVTVSS VL: SYELTQPPSVSVAPGQTARITCGGNTIGSKSVHWYQQRPGQAPVLVVYDDSDRPSGIPERFSGSNSGNTATLTISRVEAGDEADYYCQVWDSSSDRVVFGGGTKLTVL
endpoint-unit: nM
Kd: 0.3
//
binder: antibody 222 (antibody, V domains shown) VH: EVQLVESGGGLIQPGGSLRLSCAASGLTVSSNYMSWVRQAPGKGLEWVSVIYSGGSTFYADSVKGRFTISRDNSKNTLYLQMNSLGAEDTAVYYCARGEGSPGNWFDPWGQGTLVTVSS VL: DVVMTQSPGTLSLSPGERATLSCRASQSVPSSYLAWYQQKPGQAPRLLIYGASTRATGIPDRFSGSGSGTDFTLTISRLEPEDFAVYYCQHYDTSPRFGGGTKVDIK
endpoint-unit: nM
Kd: 0.29

Okay, now this binder:
Data request: Please give measured Kd of the following entry: antibody 88 (antibody, V domains shown) VH: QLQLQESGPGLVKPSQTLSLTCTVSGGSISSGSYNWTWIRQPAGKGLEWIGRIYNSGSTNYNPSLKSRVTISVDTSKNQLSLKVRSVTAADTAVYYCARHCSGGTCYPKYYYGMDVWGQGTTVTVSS VL: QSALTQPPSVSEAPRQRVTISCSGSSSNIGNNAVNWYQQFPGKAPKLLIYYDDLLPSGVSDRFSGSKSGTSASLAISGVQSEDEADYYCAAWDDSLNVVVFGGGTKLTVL
Data returned: 0.64
